All figures here come from PubChem BioAssay AID624305.

# protocol: qHTS assay for re-activators of p53 using a Luc reporter: Hit Validation; note: nearly all actives have a fitted effect of over 75% in size; note: potency is the fitted concentration of half-maximal effect
# condition_label: p53-responsive luciferase reporter cells, luminescence, H1299 line expressing heat-sensitive Ala138Val p53; series mostly up to 46.1 µM
Inconclusive results are not listed. Calls of active or inactive are those of the source. Calls come from the whole dose curve; as a rule, active = well fitted activation curve with a large enough effect; inconclusive = small, poorly fitted or top-dose-only effect; inactive = no such curve, though single readings can be large or run the other way.
measured_parameter: Potency

c1ccc(-c2cc3cc4c(cc3cn2)OCO4)cc1	11600 nM (active)
O=C(Nc1ccc2ccccc2c1)c1ccc(Cl)cc1Cl	291 nM (active)
Cc1c(C(=O)N2CCc3ccccc32)oc2c1C(=O)CC(C)(C)C2	4110 nM (active)
C=CCNc1nc(-c2cc3ccccc3o2)cs1	651 nM (active)
Cc1cccc(Nc2nc(N3CCOCC3)nc(N3CCOCC3)n2)c1	inactive
CCOc1cc(S(=O)(=O)NC2CCCCCC2)ccc1F	inactive
